Please go through the items and note down their Ki.
# output: bare number, implied unit nM

Considering Oc1ccc([C@@H]2Oc3cc(O)ccc3[C@@H]3CCC[C@@H]32)cc1 [racemic mixture] , its Ki with UniProt:Q92731 was recorded as 18.9

Considering Oc1ccc([C@@H]2Oc3cccc(O)c3[C@@H]3CCC[C@@H]32)cc1 [racemic mixture] , its Ki with UniProt:Q92731 was recorded as 0.66

Considering Oc1ccc([C@@H]2Oc3ccc(O)cc3[C@@H]3CCCCC[C@@H]32)cc1 [racemic mixture] , its Ki with UniProt:Q92731 was recorded as 0.88

Considering Oc1ccc([C@@H]2Oc3ccc(O)cc3[C@@H]3CCCC[C@@H]32)cc1 [racemic mixture] , its Ki with UniProt:Q92731 was recorded as 0.63
